Sourced from FireProtDB (doi:10.1093/protein/15.10.817)

B1: High mobility group protein B1, P63159 (parent)
chain: MGKGDPKKPRGKMSSYAFFVQTCREEHKKKHPDASVNFSEFSKKCSERWKTMSAKEKGKFEDMAKADKARYEREMKTYIPPKGETKKKFKDPNAPKRPPSAFFLFCSEYRPKIKGEHPGLSIGDVAKKLGEMWNNTAADDKQPYEKKAAKLKEKYEKDIAAYRAKGKPDAAKKGVVKAEKSKKKKEEEDDEEDEEDEEEEEEEEDEDEEEDDDDE

Variants of: B1
Conditions: Rattus norvegicus; pH 7; Thermal; CD; HEPES 10 mM; NiSO4 1 mM; structure 1HME; whole UniProt chain shown
The following variants are shown together with reported Tm values.
Output should be the measured figure followed by the unit it is expressed in.

G123H    44.9 °C
S121H    34.4 °C
I122H    41.9 °C
D139H    46.8 °C

As a next step, examine the variant that follows.
Look at this variant and give its reported Tm. D140H
46.8 °C
